Cited source for all entries: patent US20250288704A1

Give Internalized [%] for every item shown.
System: CXCR4-expressing Chem_1 cells
Experiment: Determination of internalization, dual tracer with 125I-Fc-131
Assay type: cell-based
Details: 120 min; of total cellular activity
Non-standard residues stand in square brackets, D forms with d. Residues, ends and D or L forms follow the SMILES beside them. Groups on a side chain read outwards from the residue. *: point of attachment. DOTA = O=C(O)CN1CCN(CC(=O)O)CCN(CC(=O)*)CCN(CC(=O)O)CC1; dTyr(3-I) = N[C@H](Cc1ccc(O)c(I)c1)C(=O)O; 2Nal = N[C@@H](Cc1ccc2ccccc2c1)C(=O)O; dCit = NC(=O)NCCC[C@@H](N)C(=O)O; dNMeOrn = CN[C@H](CCCN)C(=O)O; 4Amb = NCc1ccc(C(=O)O)cc1; 4Abz = Nc1ccc(C(=O)O)cc1; X1 = NCCNCC(CNCCN)C(=O)*; dDap = NC[C@@H](N)C(=O)O
Field: numeric (%). Do not append units.

## Input Requested read-out: Internalized [%]. Entry: C[C@@H](NC(=O)[C@@H](CCCNC(=N)N)NC(=O)[C@@H](CN)NC(=O)C(CNCCN)CNCCN)C(=O)Nc1ccc(C(=O)NCCC[C@@H]2C(=O)N[C@@H](CCCNC(=N)N)C(=O)N[C@@H](Cc3ccc4ccccc4c3)C(=O)NCC(=O)N[C@H](Cc3ccc(O)cc3)C(=O)N2C)cc1 [Tc-CXCR4-14] (cyclo([dY][dNMeOrn]([4Abz-dA-dR-dDap-X1])R[2Nal]G))
## Output 37.9

## Input Try this compound too: C[C@@H](NC(=O)[C@@H](CCCNC(=N)N)NC(=O)[C@@H](CN)NC(=O)CN1CCN(CC(=O)O)CCN(CC(=O)O)CCN(CC(=O)O)CC1)C(=O)NCc1ccc(C(=O)NCCC[C@@H]2C(=O)N[C@@H](CCCNC(=N)N)C(=O)N[C@@H](Cc3ccc4ccccc4c3)C(=O)NCC(=O)N[C@H](Cc3ccc(O)cc3)C(=O)N2C)cc1 [CXCR4-DOTA-1 [Lu]] (cyclo([dY][dNMeOrn]([4Amb-dA-dR-dDap-DOTA])R[2Nal]G))
## Output 7.08

## Input Try this compound too: C[C@@H](NC(=O)[C@@H](CCCNC(=N)N)NC(=O)[C@@H](CN)NC(=O)CN1CCN(CC(=O)O)CCN(CC(=O)O)CCN(CC(=O)O)CC1)C(=O)Nc1ccc(C(=O)NCCC[C@@H]2C(=O)N[C@@H](CCCNC(=N)N)C(=O)N[C@@H](Cc3ccc4ccccc4c3)C(=O)NCC(=O)N[C@H](Cc3ccc(O)c(I)c3)C(=O)N2C)cc1 [CXCR4-DOTA-4 [Lu]] (cyclo([dTyr(3-I)][dNMeOrn]([4Abz-dA-dR-dDap-DOTA])R[2Nal]G))
## Output 53.23

## Input Try this compound too: C[C@@H](NC(=O)[C@@H](CCCNC(N)=O)NC(=O)[C@@H](CN)NC(=O)CN1CCN(CC(=O)O)CCN(CC(=O)O)CCN(CC(=O)O)CC1)C(=O)Nc1ccc(C(=O)NCCC[C@@H]2C(=O)N[C@@H](CCCNC(=N)N)C(=O)N[C@@H](Cc3ccc4ccccc4c3)C(=O)NCC(=O)N[C@H](Cc3ccc(O)cc3)C(=O)N2C)cc1 [CXCR4-DOTA-5 [Lu]] (cyclo([dY][dNMeOrn]([4Abz-dA-dCit-dDap-DOTA])R[2Nal]G))
## Output 9.65
